# assay.protocol: protein stability index of a GFP-peptide fusion (yeast GPS) (PSI 1-4); higher = more stable; sorted into four equal gates, so the index is relative within each strain
# condition.summary: san1∆
So I've got a bunch of sequences here, and I need their protein stability index values.
Form field (numeric): enter value without unit.

q: Please give the measured protein stability index for this sequence: LYNDNNKNNNNRHNLLN [SWI1]
a: 1.95

q: What do you get for TYVITKNGKIYLKHNSI [RET1] ?
a: 2.45

q: What do you get for LPRELPKLLDALNKISK [SNU114] ?
a: 2.84

q: What do you get for NAVLGLGDMAVCFNNLV [YCS4] ?
a: 2.61

q: What do you get for SSSANKLLQLFLTPMDS [YML103C/NUP188] ?
a: 1.64

q: What do you get for ESEEAETKDIRKQIQLL [SRB4] ?
a: 2.5

q: What do you get for PDGTLIASAGKDGEIML [ASC1] ?
a: 3.29

q: What do you get for AAKGSSTSYAIKKKDEL [RPS5] ?
a: 3.35

q: What do you get for IFALCIYNSTDSNSEIL [YML103C/NUP188] ?
a: 1.87

q: What do you get for KTSKRTKRWYKNAGLGF [RPS11A] ?
a: 3.17

q: What do you get for SLNFIPITASTSRVFAK [YML103C/NUP188] ?
a: 2.06

q: What do you get for MTTQQEEQRSDTKNSKS [ISW2] ?
a: 2.73

q: What do you get for ERDFYHSLREYINGKAT [RPO31] ?
a: 2.9

q: What do you get for EELKNMFLYILKHLEEM [RRI2] ?
a: 1.32

q: What do you get for QFEWHQNSLLTNTHPNF [SNF2] ?
a: 3.09

q: What do you get for SDMENDNLLLNLEQINE [REC8] ?
a: 2.72

q: What do you get for GAASNRTKFVRSLVREI [RPL36A] ?
a: 3.02

q: What do you get for LEEKKKRPNNKTLEKLE [IRR1] ?
a: 3.39

q: What do you get for SNTDETKGENYQLVKTL [FAS2] ?
a: 2.81

q: What do you get for LYDNFVSKFYDKINQLS [RPN9] ?
a: 1.58

q: What do you get for MQAIADSFSVPNRLVKE [PRE2] ?
a: 3.03

q: What do you get for RVSLQDIKDFADKVYTK [QCR2] ?
a: 2.62

q: What do you get for IYEKLKNYLKNYILNFK [CDC53] ?
a: 1.17

q: What do you get for VKPHDEGSKSHPFGHAL [RPL27A] ?
a: 2.88

q: What do you get for DQLDSEAASITRKSLNN [ECM29] ?
a: 3.04

q: What do you get for DEKDYLTNQQPKNLSTP [CSE2] ?
a: 3.21

q: What do you get for EYIIAAIRKAPHNSKSL [RPN3] ?
a: 2.64

q: What do you get for RMSSEEVNSLLLQVNKT [GRR1] ?
a: 2.96

q: What do you get for DELDQEILNLSTQELQT [RPT5] ?
a: 3.14

q: What do you get for PTVSLTINLDRFMKGRR [RPC82] ?
a: 2.62

q: What do you get for EMAEKIDFTLLNRLLRL [PRP8] ?
a: 2.57

q: What do you get for EVSCKLLETITYVLNTW [YML103C/NUP188] ?
a: 2.07

q: What do you get for QFTSSLFKALKVILNER [RGR1] ?
a: 1.83

q: What do you get for DDDEIVMPVPNVRSSVL [SKP1] ?
a: 2.45

q: What do you get for AEKLGSKKAEKTGTKPA [RPL4A] ?
a: 3.13

q: What do you get for REIDALKKQLHVSHEAM [YIL149C/MLP2] ?
a: 2.91

q: What do you get for ICDPVHKHREARGLTAT [RPL15A] ?
a: 2.93

q: What do you get for VAPVSEIVNMVPSHVPQ [SIR2] ?
a: 2.66

q: What do you get for YNVENQQYVAAGDLRAL [FAS1] ?
a: 2.82

q: What do you get for NFNKFFKIWHGEINKIC [PCI8] ?
a: 1.15

q: What do you get for PYAVLSQFYELRDREDW [YJR042W/NUP85] ?
a: 2.31

q: What do you get for VLFITPDIVGHEFTLSF [BRR2] ?
a: 2.18

q: What do you get for AILKLLENMPHPWEQAK [PRP8] ?
a: 1.93

q: What do you get for SRTDAVRCKDCGHRILL [RPC10] ?
a: 2.66
